molecular target: Sodium-dependent dopamine transporter (Homo sapiens, UniProt Q01959); assay: Inhibition of [3H]DA uptake evaluated at the dopamine transporter
Sequence (Q01959 whole entry): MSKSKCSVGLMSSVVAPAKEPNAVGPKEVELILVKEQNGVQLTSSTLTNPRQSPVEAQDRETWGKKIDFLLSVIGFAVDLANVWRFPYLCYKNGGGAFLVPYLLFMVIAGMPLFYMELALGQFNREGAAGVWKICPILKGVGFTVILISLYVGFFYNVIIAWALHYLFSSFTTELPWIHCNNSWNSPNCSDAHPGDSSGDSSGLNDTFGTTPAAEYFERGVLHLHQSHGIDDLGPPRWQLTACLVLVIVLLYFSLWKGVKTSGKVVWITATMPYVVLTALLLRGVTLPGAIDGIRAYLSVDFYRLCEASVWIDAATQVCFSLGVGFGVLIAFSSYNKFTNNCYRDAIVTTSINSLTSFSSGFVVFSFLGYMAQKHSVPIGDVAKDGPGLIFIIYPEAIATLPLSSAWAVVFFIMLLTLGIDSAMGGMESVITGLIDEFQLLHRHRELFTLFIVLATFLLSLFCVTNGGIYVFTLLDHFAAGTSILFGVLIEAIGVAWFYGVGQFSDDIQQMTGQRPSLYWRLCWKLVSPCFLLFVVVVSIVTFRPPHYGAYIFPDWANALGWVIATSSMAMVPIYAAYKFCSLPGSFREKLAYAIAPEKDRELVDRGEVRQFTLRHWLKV
The reader will find reported pKi values listed item by item below.
Bear in mind: pKi is minus log10 of a mol/L concentration; give just that figure.

Below are worked cases with known answers.
c1ccc(CC(c2ccccc2)c2ccncc2)cc1 (stereo unspecified) : 6.58
c1ccc(C(c2ccccc2)c2cccnc2)cc1 : 6.07

Now look at this one.
Q: Query (compound): "c1ccc(C(c2ccccc2)c2ccncc2)cc1" ; field requested: pKi
A: 6.59

* * *

biological target: Sodium-dependent serotonin transporter (Homo sapiens); assay: Inhibition of [3H]-5-HT uptake evaluated at the Serotonin transporter
Sequence (P31645 whole entry): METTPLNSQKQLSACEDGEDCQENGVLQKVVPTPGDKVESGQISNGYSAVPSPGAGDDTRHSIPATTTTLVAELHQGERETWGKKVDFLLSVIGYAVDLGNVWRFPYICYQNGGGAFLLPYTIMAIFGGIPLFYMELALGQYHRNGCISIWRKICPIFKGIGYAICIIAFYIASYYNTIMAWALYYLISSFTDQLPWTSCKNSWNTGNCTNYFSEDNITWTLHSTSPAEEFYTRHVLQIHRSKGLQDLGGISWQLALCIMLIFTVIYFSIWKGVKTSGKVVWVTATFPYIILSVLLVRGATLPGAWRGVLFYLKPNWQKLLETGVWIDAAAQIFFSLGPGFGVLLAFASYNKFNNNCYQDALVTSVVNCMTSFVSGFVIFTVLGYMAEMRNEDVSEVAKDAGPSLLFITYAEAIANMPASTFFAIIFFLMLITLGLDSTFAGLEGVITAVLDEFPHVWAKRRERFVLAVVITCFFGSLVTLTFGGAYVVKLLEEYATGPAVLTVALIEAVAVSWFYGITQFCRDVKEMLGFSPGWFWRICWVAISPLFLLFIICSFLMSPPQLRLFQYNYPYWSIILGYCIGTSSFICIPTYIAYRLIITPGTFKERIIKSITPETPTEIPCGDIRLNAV
The reader will find reported pKi values listed item by item below.
Bear in mind: pKi is minus log10 of a mol/L concentration; give just that figure.

Below are worked cases with known answers.
c1ccc(CC(c2ccccc2)c2ccncc2)cc1 (configuration not stated) : 6.04
c1ccc(C(c2ccccc2)c2ccncc2)cc1 : 5.94
c1ccc(C(c2ccccc2)c2cccnc2)cc1 : 4.90

Now look at this one.
Q: Query (molecule): "c1ccc(C(c2ccccc2)c2ccccn2)cc1" ; field requested: pKi
A: 4.46

* * *

target: Sodium-dependent dopamine transporter (Rattus norvegicus, UniProt P23977); experiment: Inhibition of reuptake of DA into striatal nerve endings (synaptosomes)
Sequence (P23977 whole entry): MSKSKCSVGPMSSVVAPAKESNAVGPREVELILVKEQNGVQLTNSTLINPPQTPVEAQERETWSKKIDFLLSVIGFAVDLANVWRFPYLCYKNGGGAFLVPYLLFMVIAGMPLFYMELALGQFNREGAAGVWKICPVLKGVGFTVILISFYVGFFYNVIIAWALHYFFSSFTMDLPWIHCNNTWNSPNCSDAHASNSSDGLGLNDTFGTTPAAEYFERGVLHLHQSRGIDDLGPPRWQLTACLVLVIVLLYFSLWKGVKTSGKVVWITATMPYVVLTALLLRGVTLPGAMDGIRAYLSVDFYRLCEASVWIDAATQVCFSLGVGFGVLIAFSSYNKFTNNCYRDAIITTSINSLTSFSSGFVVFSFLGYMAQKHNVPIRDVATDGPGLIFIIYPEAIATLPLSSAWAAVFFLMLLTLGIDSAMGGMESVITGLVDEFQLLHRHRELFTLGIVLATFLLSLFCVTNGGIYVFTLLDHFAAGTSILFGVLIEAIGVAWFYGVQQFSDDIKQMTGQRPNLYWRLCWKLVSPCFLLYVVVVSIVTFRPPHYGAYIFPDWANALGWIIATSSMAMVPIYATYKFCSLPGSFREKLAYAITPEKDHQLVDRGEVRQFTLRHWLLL
The reader will find reported Ki values listed item by item below.

Below are worked cases with known answers.
c1ccc(Cc2ccnc(Cc3ccccc3)c2)cc1 : 2300 nM
N#Cc1c(Cl)nnc(-c2ccccc2)c1-c1ccccc1 : > 1000 nM
CN(C)CCC(C#N)(c1ccccc1)c1ccccc1 : > 1000 nM
c1ccc(-c2nnnn2-c2cnc3ccccc3c2)cc1 : > 1000 nM
c1ccc(C(c2ccccc2)c2ccncc2)cc1 : 200 nM
Clc1cnc(-c2ccccc2)n1Cc1ccccc1 : > 1000 nM
Clc1ccccc1/C=C(/c1ccccc1)c1ccccn1 : > 1000 nM
c1ccc2cc(-c3nnnn3-c3cnc4ccccc4c3)ccc2c1 : > 1000 nM
CN=C=C(c1ccccc1)c1ccccc1 : > 1000 nM

Q: Query (compound): "CN=C=C(c1ccc(Cl)cc1)c1ccc(Cl)cc1" ; field requested: Ki
A: > 1000 nM

* * *

The reader will find reported pKi values listed item by item below.
molecular target: Sodium-dependent dopamine transporter (Homo sapiens); assay: Affinity to displace binding of [3H]WIN-35428 to dopamine transporter
Bear in mind: pKi is minus log10 of a mol/L concentration; give just that figure.

c1ccc(C(c2ccccc2)c2ccccn2)cc1 : 6.13

Q: Query (compound): "c1ccc(C(c2ccccc2)c2ccncc2)cc1" ; field requested: pKi
A: 7.10

Q: Query (compound): c1ccc(CC(c2ccccc2)c2ccncc2)cc1 (configuration not stated) ; field requested: pKi
A: 7.00

Q: Query (compound): "c1ccc(C(c2ccccc2)c2cccnc2)cc1" ; field requested: pKi
A: 6.11

* * *

target: Sodium-dependent noradrenaline transporter (Homo sapiens); assay: Inhibition of [3H]-NE uptake evaluated at the monoamine transporter (NET)
Sequence (P23975 whole entry): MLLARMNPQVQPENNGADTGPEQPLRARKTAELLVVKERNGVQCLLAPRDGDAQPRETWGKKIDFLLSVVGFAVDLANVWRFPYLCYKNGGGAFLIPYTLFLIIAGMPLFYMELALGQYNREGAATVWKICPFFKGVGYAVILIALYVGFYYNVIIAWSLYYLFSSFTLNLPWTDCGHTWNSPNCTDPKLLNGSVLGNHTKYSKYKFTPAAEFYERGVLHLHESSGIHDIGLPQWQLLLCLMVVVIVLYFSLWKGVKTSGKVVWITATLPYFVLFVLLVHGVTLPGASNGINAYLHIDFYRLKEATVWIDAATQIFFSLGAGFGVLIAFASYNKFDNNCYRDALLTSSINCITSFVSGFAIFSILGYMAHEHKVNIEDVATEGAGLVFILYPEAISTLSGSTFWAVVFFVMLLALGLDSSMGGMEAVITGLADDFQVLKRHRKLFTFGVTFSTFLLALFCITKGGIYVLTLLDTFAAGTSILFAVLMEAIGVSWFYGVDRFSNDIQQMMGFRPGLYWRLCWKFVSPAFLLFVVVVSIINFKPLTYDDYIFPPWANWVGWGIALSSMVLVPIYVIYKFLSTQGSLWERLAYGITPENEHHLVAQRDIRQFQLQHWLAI
readout-type: Ki (µM)
Report as a plain number; the unit µM is understood.

Below are worked cases with known answers.
c1ccc(C(c2ccccc2)c2cccnc2)cc1 : 7.32
c1ccc(CC(c2ccccc2)c2ccncc2)cc1 (configuration not stated) : 0.393
c1ccc(C(c2ccccc2)c2ccccn2)cc1 : 5.53

Now look at this one.
Q: Query (molecule): "c1ccc(C(c2ccccc2)c2ccncc2)cc1" ; field requested: Ki
A: 3.46

* * *

The reader will find reported pKi values listed item by item below.
target: Sodium-dependent dopamine transporter (Homo sapiens); experiment: Inhibition of [3H]DA uptake evaluated at the dopamine transporter
pKi: −log10 of the molar value.

c1cncc(-c2c3ccccc3cc3ccccc23)c1 : < 5.00

Q: // map "c1ccc(Cc2ccncc2)cc1" to recorded pKi (system: Sodium-dependent dopamine transporter (Homo sapiens))
A: < 5.00

Q: // map "c1ccc2c(-c3ccncc3)c3ccccc3cc2c1" to recorded pKi (system: Sodium-dependent dopamine transporter (Homo sapiens))
A: < 5.00

* * *

biological target: Sodium-dependent serotonin transporter (Homo sapiens); test: Inhibition of [3H]-5-HT uptake evaluated at the Serotonin transporter
The reader will find reported Ki values listed item by item below.

Below are worked cases with known answers.
c1cncc(-c2c3ccccc3cc3ccccc23)c1 : > 10 µM
c1ccc(Cc2ccncc2)cc1 : > 10 µM

Q: // map "c1ccc2c(-c3ccncc3)c3ccccc3cc2c1" to recorded Ki (system: Sodium-dependent serotonin transporter (Homo sapiens))
A: > 10 µM

* * *

The reader will find reported Ki values listed item by item below.
molecular target: Sodium-dependent dopamine transporter (Homo sapiens); experiment: Affinity to displace binding of [3H]WIN-35428 to dopamine transporter

Below are worked cases with known answers.
c1cncc(-c2c3ccccc3cc3ccccc23)c1 : > 10 µM
c1ccc2c(-c3ccncc3)c3ccccc3cc2c1 : > 10 µM

Q: // map "c1ccc(Cc2ccncc2)cc1" to recorded Ki (system: Sodium-dependent dopamine transporter (Homo sapiens))
A: > 10 µM

* * *

biological target: Sodium-dependent noradrenaline transporter (Homo sapiens); experiment: Inhibition of [3H]-NE uptake evaluated at the monoamine transporter (NET)
pKi: −log10 of the molar value.
readout-type: pKi

Below are worked cases with known answers.
c1ccc(Cc2ccncc2)cc1 : < 5.00
c1ccc2c(-c3ccncc3)c3ccccc3cc2c1 : < 5.00

Now look at this one.
Q: Query (molecule): "c1cncc(-c2c3ccccc3cc3ccccc23)c1" ; field requested: pKi
A: < 5.00
